Cited source: patent US20230406831A1

# measurement.target: GroEL/ES (Escherichia coli, UniProt P0A6F5)
# Construct: made in house; host or cells: GroEL in E. coli DH5a; GroES in E. coli BL21 (DE3)
# Sequence (P0A6F5 2-548): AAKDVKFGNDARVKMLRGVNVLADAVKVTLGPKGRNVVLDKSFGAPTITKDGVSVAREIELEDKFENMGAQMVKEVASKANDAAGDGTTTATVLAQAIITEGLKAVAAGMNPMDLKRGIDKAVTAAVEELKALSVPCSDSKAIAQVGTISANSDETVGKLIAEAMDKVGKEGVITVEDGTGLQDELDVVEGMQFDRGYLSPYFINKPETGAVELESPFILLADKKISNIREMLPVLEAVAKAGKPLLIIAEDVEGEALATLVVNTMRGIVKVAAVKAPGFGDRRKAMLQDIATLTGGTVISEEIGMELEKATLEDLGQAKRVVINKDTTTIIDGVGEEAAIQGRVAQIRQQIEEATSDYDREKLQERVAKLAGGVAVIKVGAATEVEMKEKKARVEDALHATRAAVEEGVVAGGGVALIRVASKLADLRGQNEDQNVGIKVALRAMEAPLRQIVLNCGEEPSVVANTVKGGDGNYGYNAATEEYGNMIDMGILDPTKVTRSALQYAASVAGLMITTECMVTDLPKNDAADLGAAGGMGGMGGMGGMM
# protocol.description: GroEL/ES-mediated dMDH refolding assay
# Format: biochemical, E. coli
Under this convention, Y denotes IC50 strictly below 50 µM and N denotes IC50 at or above 50 µM.

Answered cases to consult:
>  <molecule>
N#CC(c1ccccc1)c1ccc(NC(=O)c2cc(Cl)ccc2O)cc1 (stereo not drawn)

>  <assigned.category>
N

$$$$
>  <molecule>
O=C(Nc1ccc(Sc2nc3ccccc3s2)c(Cl)c1)c1cc(Cl)ccc1O

>  <assigned.category>
Y

$$$$
>  <molecule>
O=C(Nc1ccc(OCc2ccccc2)cc1)c1cc(Cl)ccc1O

>  <assigned.category>
Y

$$$$

Enquiry: Take the molecule COC(=O)c1ccc(NC(=O)c2cc(Cl)ccc2O)cc1 and say whether its IC50 is less than 50 µM.
Return: N
